Taken from patent US9771379B2.

System Tested: full length human BACE1 (Homo sapiens (Human), UniProt P56817)
Sequence (P56817 46-501): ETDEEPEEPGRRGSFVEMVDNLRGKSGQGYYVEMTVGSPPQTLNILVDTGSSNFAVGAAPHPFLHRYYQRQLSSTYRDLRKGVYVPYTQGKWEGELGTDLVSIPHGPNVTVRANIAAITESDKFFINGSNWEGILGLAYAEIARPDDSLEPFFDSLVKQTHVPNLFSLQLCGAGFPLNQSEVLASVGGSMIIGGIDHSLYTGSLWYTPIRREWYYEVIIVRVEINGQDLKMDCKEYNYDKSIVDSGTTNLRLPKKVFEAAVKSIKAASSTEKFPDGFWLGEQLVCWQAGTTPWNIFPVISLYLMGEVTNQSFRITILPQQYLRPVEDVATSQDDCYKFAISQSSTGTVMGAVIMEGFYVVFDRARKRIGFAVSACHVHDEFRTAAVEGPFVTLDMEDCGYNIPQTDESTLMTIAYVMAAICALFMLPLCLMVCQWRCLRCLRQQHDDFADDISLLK
Measurement Kind: IC50 (nM)
The figure you give is taken to be in nM; do not add the unit.

Request: IC50, test system full length human BACE1 (Homo sapiens (Human), UniProt P56817), entry `NC1=N[C@@]2(c3nc(NC(=O)c4cnc(OC(F)F)cn4)cs3)CO[C@@H](C(F)(F)F)C[C@H]2CO1`
124

---

A short record of pIC50 observed with UniProt P56817 follows.
Please note pIC50 is a logarithmic value: minus log10 of concentration in mol/L. Answer with that number alone.

Record excerpt, results attached:
>>> measured("NC1=N[C@]2(c3nc(NC(=O)c4ncc(OC(F)F)cc4Cl)cs3)CO[C@H](C(F)(F)F)C[C@@H]2CO1 [Example 13b]")
5.16
>>> measured("Cc1cc(OC(F)F)cnc1C(=O)Nc1csc([C@@]23CO[C@H](C(F)(F)F)C[C@@H]2COC(N)=N3)n1 [Example 11b]")
4.97
>>> measured("Cc1cc(OC(F)F)cnc1C(=O)Nc1csc([C@]23CO[C@@H](C(F)(F)F)C[C@H]2COC(N)=N3)n1 [Example 11a]")
6.81
>>> measured("Cc1cc(OC(F)F)cnc1C(=O)Nc1csc([C@]23COC4(CCC4)C[C@H]2COC(N)=N3)n1 [Example 15]")
6.43
>>> measured("C[C@H]1C[C@H]2CCOC(N)=N[C@@]2(c2nc(NC(=O)c3ccc(OC(F)F)cn3)cs2)CO1 [Example 4]")
6.84
>>> measured("Cc1cc(OC(F)F)cnc1C(=O)Nc1csc([C@]23CO[C@@H](C)C[C@H]2CCOC(N)=N3)n1 [Example 5]")
7.15
>>> measured("NC1=N[C@@]2(c3nc(NC(=O)c4ncc(OC(F)F)cc4Cl)cs3)CO[C@@H](C(F)(F)F)C[C@H]2CO1 [Example 13a]")
6.74
>>> measured("NC1=N[C@]2(c3nc(NC(=O)c4ccc(Cl)cn4)cs3)CO[C@H](C(F)(F)F)C[C@@H]2CO1 [Example 10b]")
4.78
>>> measured("NC1=N[C@@]2(c3nc(NC(=O)c4ccc(OC(F)F)cn4)cs3)CO[C@@H](C(F)(F)F)C[C@H]2CO1 [Example 12a]")
6.43
>>> measured("NC1=N[C@@]2(c3nc(NC(=O)c4ncc(OC(F)F)cc4Cl)cs3)COC3(CCC3)C[C@H]2CO1 [Example 18]")
6.25

What does the data say about its pIC50? Entry: NC1=N[C@@]2(c3nc(NC(=O)c4ccc(Cl)cn4)cs3)CO[C@@H](C(F)(F)F)C[C@H]2CO1 [Example 10a]
6.51

What does the data say about its pIC50? Entry: NC1=N[C@@]2(c3nc(NC(=O)c4cnc(OC(F)F)cn4)cs3)COC3(CCC3)C[C@H]2CO1 [Example 17]
5.65

What does the data say about its pIC50? Entry: C[C@H]1C[C@H]2COC(N)=N[C@@]2(c2nc(NC(=O)c3ncc(OC(F)F)cc3Cl)cs2)CO1 [Example 2]
6.91

What does the data say about its pIC50? Entry: NC1=N[C@]2(c3nc(NC(=O)c4ccc(OC(F)F)cn4)cs3)CO[C@H](C(F)(F)F)C[C@@H]2CO1 [Example 12b]
4.82

---

System Tested: BACE1 enzyme (Homo sapiens (Human))
Sequence (P56817 46-457): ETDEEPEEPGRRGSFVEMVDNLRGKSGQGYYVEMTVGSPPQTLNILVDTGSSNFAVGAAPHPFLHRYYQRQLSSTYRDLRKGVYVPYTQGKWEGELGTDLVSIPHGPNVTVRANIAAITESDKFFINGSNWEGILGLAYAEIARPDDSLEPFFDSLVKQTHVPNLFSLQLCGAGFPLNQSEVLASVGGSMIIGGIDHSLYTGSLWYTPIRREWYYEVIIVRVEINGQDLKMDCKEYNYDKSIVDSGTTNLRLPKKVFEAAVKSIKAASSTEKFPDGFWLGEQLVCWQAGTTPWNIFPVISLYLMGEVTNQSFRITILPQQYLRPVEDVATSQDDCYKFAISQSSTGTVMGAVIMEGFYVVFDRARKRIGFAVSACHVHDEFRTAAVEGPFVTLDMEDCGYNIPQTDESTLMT
Assay Method Text: BACE1 Cell-Free Assay
Assay type: biochemical
Recorded Conditions: stated in words; used to assign absolute stereochemistry
Measurement Kind: biological activity

>>> measured("NC1=N[C@@]2(c3nc(NC(=O)c4ncc(OC(F)F)cc4Cl)cs3)CO[C@@H](C(F)(F)F)C[C@H]2CO1 [Example 13a]")
"active"
>>> measured("NC1=N[C@@]2(c3nc(NC(=O)c4ccc(Cl)cn4)cs3)CO[C@@H](C(F)(F)F)C[C@H]2CO1 [Example 10a]")
"active"
>>> measured("NC1=N[C@]2(c3nc(NC(=O)c4ccc(Cl)cn4)cs3)CO[C@H](C(F)(F)F)C[C@@H]2CO1 [Example 10b]")
"inactive"
>>> measured("NC1=N[C@]2(c3nc(NC(=O)c4ncc(OC(F)F)cc4Cl)cs3)CO[C@H](C(F)(F)F)C[C@@H]2CO1 [Example 13b]")
"inactive"
